# measuredTarget: T1, CTB5-MBP (OsHox14, HD-Zip I) (Oryza sativa (japonica; KMXBG or Towada …, UniProt Q7XI85 1-240)
# T1 sequence: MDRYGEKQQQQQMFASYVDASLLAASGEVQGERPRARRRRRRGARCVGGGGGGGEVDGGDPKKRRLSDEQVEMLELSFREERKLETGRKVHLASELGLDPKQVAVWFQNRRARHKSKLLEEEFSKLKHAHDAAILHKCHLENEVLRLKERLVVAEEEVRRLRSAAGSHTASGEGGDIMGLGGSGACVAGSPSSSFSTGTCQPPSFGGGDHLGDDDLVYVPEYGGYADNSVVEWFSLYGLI
# measurementDescription: EMSA
propertyLabel: binding result

Known binding result results, listed for orientation:
• OsGA2ox6 promoter probe mutant (dsDNA) DNA 1: CGGGGATGTGCAGTTCCCCCCATTTTGTATAAGATT DNA 2: AATCTTATACAAAATGGGGGGAACTGCACATCCCCG = no binding
• PYL9 promoter probe WT (AH1 motif) (dsDNA) DNA 1: AAAATATATTCAATTATTGATTTGAAACTA DNA 2: TAGTTTCAAATCAATAATTGAATATATTTT = binds
• OsGA3ox1 promoter probe mutant (dsDNA) DNA 1: ATAGGAAAAAAAATTGGGGGGGGCTTAAATTTTTTGAA DNA 2: TTCAAAAAATTTAAGCCCCCCCCAATTTTTTTTCCTAT = no binding
• OsGA2ox6 promoter probe WT (dsDNA) DNA 1: CGGGGATGTGCAGTTTAATTAATTTTGTATAAGATT DNA 2: AATCTTATACAAAATTAATTAAACTGCACATCCCCG = binds

# ---- query binder ----
Exercise: Give the reported value of binding result for this record: OsGA3ox1 promoter probe WT (dsDNA) DNA 1: ATAGGAAAAAAAATTAATAATTACTTAAATTTTTTGAA DNA 2: TTCAAAAAATTTAAGTAATTATTAATTTTTTTTCCTAT
Key: binds

Recorded values, source paper PMC11763261.
